Tested on: Aspergillus flavus
test.description: Antimicrobial activity against Aspergillus flavus MTCC 873 after 48 hrs by microdilution method
Assay type: functional
measurement.conditions: MTCC 873, 48 h
Field: MFC. Provide a value for each of the compounds that follow.
Numbers only, in mg/L.

smi=COc1ccc(-c2nnc(-c3c(-c4ccccc4)nn(-c4ccccc4)c3C)o2)cc1 measurement_type=MFC reported_value=270
smi=Cc1c(C(=O)NNC(=O)c2ccccc2)c(-c2ccccc2)nn1-c1ccccc1 measurement_type=MFC reported_value=275
smi=Cc1c(-c2nnc(-c3ccc([N+](=O)[O-])cc3)o2)c(-c2ccccc2)nn1-c1ccccc1 measurement_type=MFC reported_value=290
smi=Cc1c(-c2nnc(-c3ccccc3)o2)c(-c2ccc([N+](=O)[O-])cc2)nn1-c1ccccc1 measurement_type=MFC reported_value=290
smi=COc1ccc(-c2nn(-c3ccccc3)c(C)c2-c2nnc(-c3ccccc3)o2)cc1OC measurement_type=MFC reported_value=275

Hello, I would appreciate it if you could give MFC for each entry below.
1. Cc1c(-c2nnc(-c3ccccc3)o2)c(-c2ccc(Cl)cc2)nn1-c1ccccc1
2. Cc1c(C(=O)O)c(-c2ccccc2)nn1-c1ccccc1
3. COc1cc(-c2nnc(-c3c(-c4ccccc4)nn(-c4ccccc4)c3C)o2)cc(OC)c1OC

Result block:
1. 275
2. 300
3. 275

Query block: Quick one: MFC of COc1cc(-c2nnc(-c3c(-c4cc(OC)c(OC)c(OC)c4)nn(-c4ccccc4)c3C)o2)cc(OC)c1OC ?
Result block: 215

====

System: Klebsiella pneumoniae
test.description: Antimicrobial activity against Klebsiella pneumoniae MTCC 3384 at 100 ug/ml after 24 hrs by disc diffusion method
Type: functional
measurement.conditions: MTCC 3384, 24 h, read-out: DIZ
Give zone of inhibition at 100 µg/mL for every item shown.
One number for each entry, in mm.

The following molecules have reported results that may help.
smi=Cc1c(-c2nnc(-c3ccccc3)o2)c(-c2ccccc2)nn1-c1ccccc1 unit_abbreviation=mm reported_value=14
smi=COc1cc(-c2nnc(-c3c(-c4cc(OC)c(OC)c(OC)c4)nn(-c4ccccc4)c3C)o2)cc(OC)c1OC unit_abbreviation=mm reported_value=21
smi=COc1cc(-c2nnc(-c3c(-c4ccccc4)nn(-c4ccccc4)c3C)o2)cc(OC)c1OC unit_abbreviation=mm reported_value=20
smi=COc1ccc(-c2nn(-c3ccccc3)c(C)c2-c2nnc(-c3ccccc3)o2)cc1OC unit_abbreviation=mm reported_value=9

I'm hoping you can list zone of inhibition at 100 µg/mL for every molecule here, please.
1. Cc1c(-c2nnc(-c3ccccc3)o2)c(-c2ccc(Cl)cc2)nn1-c1ccccc1
2. Cc1c(C(=O)O)c(-c2ccccc2)nn1-c1ccccc1
3. COc1cc(-c2nn(-c3ccccc3)c(C)c2-c2nnc(-c3ccccc3)o2)cc(OC)c1OC
4. Cc1c(C(=O)NNC(=O)c2ccccc2)c(-c2ccccc2)nn1-c1ccccc1
5. COc1ccc(-c2nn(-c3ccccc3)c(C)c2-c2nnc(-c3ccccc3)o2)cc1

Result block:
[9, 6, 10, 14, 9]

====

Exercise: state measured zone of inhibition at 100 µg/mL for each of the compounds provided.
System: Escherichia coli
test.description: Antimicrobial activity against Escherichia coli MTCC 724 at 100 ug/ml after 24 hrs by disc diffusion method
Format: functional
measurement.conditions: MTCC 724, 24 h, read-out: DIZ
Give bare numbers, in mm.

The cases that follow already have their zone of inhibition at 100 µg/mL on record.
smi=Cc1c(C(=O)O)c(-c2ccccc2)nn1-c1ccccc1 reported_value=8
smi=Cc1c(-c2nnc(-c3ccccc3)o2)c(-c2ccc([N+](=O)[O-])cc2)nn1-c1ccccc1 reported_value=18

Okay, here is my list. What is zone of inhibition at 100 µg/mL for each of these?
1. Cc1c(-c2nnc(-c3ccccc3)o2)c(-c2ccc(Cl)cc2)nn1-c1ccccc1
2. Cc1c(-c2nnc(-c3ccc([N+](=O)[O-])cc3)o2)c(-c2ccc([N+](=O)[O-])cc2)nn1-c1ccccc1
3. COc1ccc(-c2nn(-c3ccccc3)c(C)c2-c2nnc(-c3ccccc3)o2)cc1OC
4. COc1ccc(-c2nn(-c3ccccc3)c(C)c2-c2nnc(-c3ccccc3)o2)cc1

Result block:
18
22
20
14

====

System: Escherichia coli
test.description: Antimicrobial activity against Escherichia coli MTCC 724 at 100 ug/ml after 24 hrs by disc diffusion method
Format: functional
measurement.conditions: MTCC 724, 24 h, read-out: DIZ
I'd be grateful if you could share measured zone of inhibition at 100 µg/mL for these entries.
Output should be the measured figure followed by the unit it is expressed in.

smi=COc1cc(-c2nnc(-c3c(-c4ccccc4)nn(-c4ccccc4)c3C)o2)cc(OC)c1OC reported_value="32 mm"
smi=Cc1c(-c2nnc(-c3ccc(Cl)cc3)o2)c(-c2ccc(Cl)cc2)nn1-c1ccccc1 reported_value="16 mm"
smi=CN(C)[C@@H]1C(O)=C(C(N)=O)C(=O)[C@@]2(O)C(O)=C3C(=O)c4c(O)cccc4[C@@](C)(O)[C@H]3C[C@@H]12 reported_value="30 mm"
smi=Cc1c(-c2nnc(-c3ccc([N+](=O)[O-])cc3)o2)c(-c2ccccc2)nn1-c1ccccc1 reported_value="20 mm"
smi=Cc1c(-c2nnc(-c3ccccc3)o2)c(-c2ccccc2)nn1-c1ccccc1 reported_value="6 mm"

List zone of inhibition at 100 µg/mL for every entry below, keeping the order given.
1. COc1cc(-c2nn(-c3ccccc3)c(C)c2-c2nnc(-c3ccccc3)o2)cc(OC)c1OC
2. COc1ccc(-c2nnc(-c3c(-c4ccccc4)nn(-c4ccccc4)c3C)o2)cc1
3. COc1cc(-c2nnc(-c3c(-c4cc(OC)c(OC)c(OC)c4)nn(-c4ccccc4)c3C)o2)cc(OC)c1OC
4. Cc1c(C(=O)NN)c(-c2ccccc2)nn1-c1ccccc1
5. Cc1c(C(=O)NNC(=O)c2ccccc2)c(-c2ccccc2)nn1-c1ccccc1
6. Cc1c(-c2nnc(-c3ccc(Cl)cc3)o2)c(-c2ccccc2)nn1-c1ccccc1

Result block:
1. 17 mm
2. 12 mm
3. 36 mm
4. 11 mm
5. 18 mm
6. 12 mm
